tested on: 266 human PDZ domains (PDZome); assay: Holdup assay (chromatographic retention, PDZome-binding profile, BI); design: key: binding intensity: 0.00 = no binding, 1.00 = maximal binding; conditions: PDZ domain PDZD7-1
*1 amine or outer side, *2 acyl side, *3 side chain or, on linkers, in order; H or OH if unused. Where a SMILES comes first, the peptide text is derived from it. The star is where a group is joined. X1 = O=C(CCCC[C@@H]1SC[C@@H]2NC(=O)N[C@@H]21)NCCCOCCOCCOCCCN*; Suc = O=C(CCC(=O)[*:2])[*:1]
Reported BI by item:
Reply briefly: the number, and no unit.

Exercise: Fill in BI for record CC[C@H](C)[C@H](NC(=O)[C@H](CCC(N)=O)NC(=O)[C@@H](NC(=O)[C@H](Cc1c[nH]cn1)NC(=O)[C@H](CCC(N)=O)NC(=O)[C@H](CC(=O)O)NC(=O)[C@H](CCC(=O)O)NC(=O)[C@H](CC(=O)O)NC(=O)[C@H](Cc1ccccc1)NC(=O)[C@@H]1CCCN1C(=O)CCC(=O)NCCCOCCOCCOCCCNC(=O)CCCC[C@@H]1SC[C@@H]2NC(=O)N[C@@H]21)[C@@H](C)O)C(=O)N[C@H](C(=O)N[C@@H](CCCCN)C(=O)N[C@H](C(=O)O)C(C)C)[C@@H](C)O [PTEN_13] ({X1-Suc}-PFDEDQHTQITKV-OH)
Solution: -0.034

Exercise: Please report BI for the following compound: CC[C@H](C)[C@H](NC(=O)[C@H](CCC(N)=O)NC(=O)[C@@H](NC(=O)[C@H](Cc1c[nH]cn1)NC(=O)[C@H](CCC(N)=O)NC(=O)[C@H](CC(=O)O)NC(=O)[C@H](CCC(=O)O)NC(=O)[C@H](CC(=O)O)NC(=O)CCC(=O)NCCCOCCOCCOCCCNC(=O)CCCC[C@@H]1SC[C@@H]2NC(=O)N[C@@H]21)[C@@H](C)O)C(=O)N[C@H](C(=O)N[C@@H](CCCNC(=N)N)C(=O)N[C@H](C(=O)O)C(C)C)[C@@H](C)O [PTEN_KR] ({X1-Suc}-DEDQHTQITRV-OH)
Solution: -0.024

Exercise: // Input: CC[C@H](C)[C@H](NC(=O)[C@H](CCC(N)=O)NC(=O)[C@@H](NC(=O)[C@H](Cc1c[nH]cn1)NC(=O)[C@H](CCC(N)=O)NC(=O)[C@H](CC(=O)O)NC(=O)[C@H](CCC(=O)O)NC(=O)[C@H](CC(=O)O)NC(=O)CCC(=O)NCCCOCCOCCOCCCNC(=O)CCCC[C@@H]1SC[C@@H]2NC(=O)N[C@@H]21)[C@@H](C)O)C(=O)N[C@H](C(=O)N[C@@H](CCCCNC(C)=O)C(=O)N[C@H](C(=O)O)C(C)C)[C@@H](C)O [PTEN_Ac] . Output its BI only.
Solution: -0.051
